# System: LXRa:RXRa (NR concentration 270 nM, RXRa partner concentration 90 nM)
# protocol-notes: PBM binding z-score (relative to random genomic background probes); higher = stronger binding; sequences stand for … in GC…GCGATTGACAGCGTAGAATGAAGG
Would you please tag the item t when its PBM binding z-score is 0.6 or above, and f when it is below?

AGAACGAGGGCAATGAGTTGATAGAACGGGTGGC | f
CCGACTGGGGCAGAAAGGTTACAATACCATCCGG | f
CCGACTGGGGCAAAGGTTCCCATACTCAGTACGA | f
TCATATAGGTAAACAGGTGAAAGACCGTAAGTTA | t
CCTATTAGTTGACCATAAGGGCAATCGAAGCTCG | f
AGAAGGAGGTTAAGATCAGGGAAACAGAATACAT | t

Request: Reported PBM binding z-score reaches at least 0.6 for GTACCAAGGTGAATAGGTCGTTGAGGAGTAGGCG ?
Result: t

Request: Has GCGACTGGGACATCAGCAGGTTACCATAACTTAA a recorded PBM binding z-score greater than or equal to 0.6?
Result: f

* * *

# Tested on: PPARg:RXRa 30nM:10nM, anti-RXR (NR concentration 30 nM, RXRa partner concentration 10 nM)
# protocol-notes: PBM binding z-score (relative to random genomic background probes); higher = stronger binding; sequences stand for … in GC…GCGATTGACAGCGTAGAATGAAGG
Please enter 1 where PBM binding z-score is greater than or equal to 1, and 0 where it is lower.

AGTCAAAGATCACTAGGTAACGTAAGATTCAGCT | 0
CCTACTGGGCCACAAAGGTCATTGATGCCGATAA | 1
CCGACTGGGGCAAAGGTTACCTTACTCAGTACGA | 1
AGAATGAGGTTAAGAGCAGGGAAACAGAATACAT | 0
TGAATGCGGTTATAAGATCAGGGAACGTTGCAAA | 0
CGTCAAAGTACAAGGTAACGTAACAGAAAGCAGC | 0

Request: Could you tell me if the measured PBM binding z-score of TCTATTAGTGGAAGGGCAACCGACGAGTCCGTTT reaches 1 or more?
Result: 1

Request: Check if PBM binding z-score >= 1 (inclusive). Item: CCGAGTCGGTTATGGGGCATTCAGGCAACGGTGA
Result: 0

Request: Is PBM binding z-score for AGTCAACGTTCATCTAGGTAACGTAAGATATGCT at or above 1?
Result: 0

Request: API: above_or_equal(metric=PBM binding z-score, cutoff=1) for item CCTACTGGGCCATCAGGTCATTGGTATCAACGTT
Result: 1

Request: Is it the case that AGAATTAGGTTATTAAGATCAGGGAATTGCGGTC has PBM binding z-score reaching or exceeding 1?
Result: 1

Request: Could you verify whether the entry CCTCCTGGGCCATTCAGAGGTCATTGATCATATG shows PBM binding z-score of no less than 1?
Result: 0

* * *

# Tested on: LXRb homodimer (NR concentration 270 nM)
# protocol-notes: PBM binding z-score (relative to random genomic background probes); higher = stronger binding; sequences stand for … in GC…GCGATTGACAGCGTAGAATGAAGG
Mark No for PBM binding z-score values under 0.1, and Yes for everything at or above.

TTACGAAGGTGAAGGTCGTTGATCCCTCTGTAGA | No
TCTTGTAGATCAGGCAGGTTAAGAAAGCCTGAGT | No
GCTCGCAGGACAAGGTCAGAGCTTTGTCCGTAGA | No
ACTATTAGTTGAGACGAGGACAACCGATAGGTTG | Yes
AATACAGGGTCACTAGGCCAGCGTAGGTACGAAT | Yes
CGTACTAGGTCAAGGACAGTGAATCTCCGCACGC | Yes
CCTACTTGGCCAAAAAGGTCATTGATGCCGATAA | Yes
CGTACTGGGCCAAAAAGGTCATTGATGCCGATAA | Yes
GCTGCTGGGTCAACTGATGGTCAGCTAAAGCTCG | No
TCTCTGAGGACACGAAGGTCAGAGCTTTCCAGAG | No

Request: Could you verify whether the entry TCTTGTAGATCAGCGGGTTAAGAAAGCTGGCCAA shows PBM binding z-score of no less than 0.1?
Result: Yes

Request: Hello, I need to know if GCTAGCAGGCCATTAGGGTCACTCAATGACGGGC has measured PBM binding z-score not below 0.1. Thanks!
Result: No
